# EXPERIMENTAL TARGET: Protein arginine N-methyltransferase 5 (Homo sapiens)
# Sequence (O14744 whole entry): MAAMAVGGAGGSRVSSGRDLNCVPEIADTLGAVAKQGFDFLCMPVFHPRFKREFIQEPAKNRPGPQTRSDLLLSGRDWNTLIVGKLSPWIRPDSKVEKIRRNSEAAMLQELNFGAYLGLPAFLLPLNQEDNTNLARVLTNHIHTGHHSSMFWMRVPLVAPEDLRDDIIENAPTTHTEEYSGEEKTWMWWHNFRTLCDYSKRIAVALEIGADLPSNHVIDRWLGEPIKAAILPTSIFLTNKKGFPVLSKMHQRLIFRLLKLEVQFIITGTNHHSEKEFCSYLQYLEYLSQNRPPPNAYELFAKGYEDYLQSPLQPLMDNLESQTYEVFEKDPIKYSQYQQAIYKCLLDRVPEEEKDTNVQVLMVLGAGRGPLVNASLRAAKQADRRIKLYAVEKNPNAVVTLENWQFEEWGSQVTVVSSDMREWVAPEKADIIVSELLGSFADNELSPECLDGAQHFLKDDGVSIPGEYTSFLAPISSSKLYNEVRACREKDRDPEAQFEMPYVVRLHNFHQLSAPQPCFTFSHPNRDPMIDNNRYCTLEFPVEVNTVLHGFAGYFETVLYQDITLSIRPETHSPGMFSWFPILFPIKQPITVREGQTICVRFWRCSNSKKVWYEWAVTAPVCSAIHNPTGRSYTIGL
# METHOD NOTES: Inhibition of PRMT5 methyltransferase activity in human MTAP -/- Calu-6 cells assessed as reduction in SmB SDMA levels measured after 2 days by HTRF based assay
pIC50: −log10 of the molar value.
ENDPOINT LABEL: pIC50

P: Cc1cc2ccc(Cn3nccc3C(=O)N(C)c3ncccc3F)cc2nc1N
Q: Cc1cc2ccc(Cn3c(C(=O)N(C)c4ccccn4)cn(C)c3=O)cc2nc1N
// select label with min value of measured pIC50 from [ P , Q ] Your answer should be the label attached to the chosen record.
P
(P: 7.85, Q: 8.05)

a: Cc1cc2ccc(Cn3c(C(=O)N(C)c4ccccc4)cccc3=O)cc2nc1N
b: Cc1cc2ccc(Cn3c(C(=O)N(C)c4ccccc4)noc3=O)cc2nc1N
// select label with min value of measured pIC50 from [ a , b ] Your answer should be the label attached to the chosen record.
b
(b: 7.31, a: 7.77)

A: Cc1cc2ccc(Cn3c(C(=O)N(C)c4ccccc4)coc3=O)cc2nc1N
B: Cc1cc2ccc(Cn3c(C(=O)N(C)c4ccccn4)nn(C)c3=O)cc2nc1N
C: Cc1cc2ccc(Cn3c(C(=O)N(C)c4ccccc4)nccc3=O)cc2nc1N
D: Cc1cc2ccc(Cn3c(C(=O)N(C)c4ccccc4)cn(C)c3=O)cc2nc1N
Order these by pIC50, descending, and give the full ranking. To answer, write out the labels according to the requested order.
A, D, B, C
(A: 9.00, D: 8.70, B: 7.68, C: 7.41)

I: Cc1cc2ccc(Cn3nncc3C(=O)N(C)c3ccccc3)cc2nc1N
II: Cc1cc2ccc(Cn3c(C(=O)N(C)c4ccccc4)nn(C)c3=O)cc2nc1N
Form field 'greater pIC50' accepts I or II ; which applies? Your answer should be the label attached to the chosen record.
II

---

# METHOD NOTES: Lipophilicity, logD of the compound in octanol and phosphate buffer at pH 7.4 incubated for 4 hrs under shaking condition by liquid chromatography tandem mass spectrometry
# Format: physicochemical
ENDPOINT LABEL: logD at 4 h

{"SMILES CODE": "Cc1cc2ncc(Cn3c(C(=O)N(C)c4ccccc4)cn(C)c3=O)cc2nc1N", "logD at 4 h": 1.1}
{"SMILES CODE": "Cc1cc2ccc(Cn3c(C(=O)N(C)c4ccccc4)cn(C)c3=O)cc2nc1N", "logD at 4 h": 1.6}

I: Cc1cc2ccc(Cn3c(C(=O)N(C)c4ccccn4)cn(C)c3=O)cc2nc1N
II: Cc1cc2ccc(Cn3nncc3C(=O)N(C)c3ccccc3)cc2nc1N
Form field 'greater logD at 4 h' accepts I or II ; which applies? Your answer should be the label attached to the chosen record.
II

The origin of these recorded values is ChEMBL document CHEMBL5126629.
